Assign remaining at 10 min, 0.5 µM to each entry below.
Assay: Metabolic stability in mouse liver microsomes assessed as parent compound remaining at 0.5 uM after 10 mins
Type: ADME, Microsome
Conditions: read-out: Stabilty
Report the figure in % without appending any unit label.

Assign remaining at 10 min, 0.5 µM to the following record: CCC(c1nc2ncc(Cl)cc2[nH]1)[C@H]1CC[C@@H](c2ccnc3ccc(C(F)(F)F)cc32)CC1 (stereo partly drawn)
57

In one line, give reported remaining at 10 min, 0.5 µM of the entry `COc1ccc(-c2nnc(N[C@H](C)[C@H]3CC[C@@H](c4ccnc5ccc(F)cc54)CC3)o2)cc1` .
17

Entry CCC(c1nc2ccc(Cl)cc2[nH]1)[C@H]1CC[C@H](Oc2ccnc3ccccc23)CC1 (stereo partly drawn) needs its remaining at 10 min, 0.5 µM filled in; supply it.
82

Answer with the recorded remaining at 10 min, 0.5 µM for the compound listed here: CCC(c1nc2ncc(Cl)cc2[nH]1)[C@H]1CC[C@@H](c2ccnc3ccc(F)cc32)CC1 (stereo partly drawn)
7

For the compound CCC(c1nc2ccc(Cl)cc2[nH]1)[C@H]1CC[C@@H](c2ccnc3ccc(F)cc32)CC1 (stereo partly drawn) , give its measured remaining at 10 min, 0.5 µM value.
49

Specify reported remaining at 10 min, 0.5 µM for the compound shown: `C[C@@H](c1nc2ccc(F)cc2[nH]1)[C@H]1CC[C@@H](c2ccnc3ccc(F)cc32)CC1`
5

Provide measured remaining at 10 min, 0.5 µM value, entry: `C[C@@H](c1ncc(-c2ccc(Cl)cc2)[nH]1)[C@H]1CC[C@@H](c2ccnc3ccc(F)cc32)CC1`
59

// Input: `C[C@@H](c1nc2ncc(Cl)cc2[nH]1)[C@H]1CC[C@@H](c2ccnc3ccc(F)cc32)CC1` . Output its remaining at 10 min, 0.5 µM only.
22
